Cited source for all entries: patent US20220332795A1

ASSAY_TARGET: human serum albumin (human) (UniProt P02768)
Sequence (P02768 25-609 limits assumed): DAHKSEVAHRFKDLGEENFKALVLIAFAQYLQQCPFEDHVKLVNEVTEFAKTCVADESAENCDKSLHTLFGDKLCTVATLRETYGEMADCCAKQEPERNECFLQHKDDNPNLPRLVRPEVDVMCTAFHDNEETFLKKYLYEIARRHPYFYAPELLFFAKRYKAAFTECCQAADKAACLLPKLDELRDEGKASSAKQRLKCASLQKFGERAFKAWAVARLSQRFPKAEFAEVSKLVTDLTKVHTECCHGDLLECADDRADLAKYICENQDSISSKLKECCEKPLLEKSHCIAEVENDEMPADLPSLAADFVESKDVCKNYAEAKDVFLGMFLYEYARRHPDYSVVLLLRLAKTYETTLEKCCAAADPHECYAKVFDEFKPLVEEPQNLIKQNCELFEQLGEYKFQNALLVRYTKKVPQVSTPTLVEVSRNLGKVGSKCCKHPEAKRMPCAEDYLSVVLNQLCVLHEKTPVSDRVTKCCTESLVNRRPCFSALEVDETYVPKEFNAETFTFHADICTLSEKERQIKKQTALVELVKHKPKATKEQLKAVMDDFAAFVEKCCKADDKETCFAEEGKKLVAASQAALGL
ASSAY_PROTOCOL: solution ELISA screen (luminescence)
MEASURED_ATTRIBUTE: RLU (RLU)

[1] SEQ ID NO 262 (designed binder, not shown: small tags and cut ends) MLPAPKNLVVSRVTEDSARLSWTAPDAAFDSFYIAYAEPRPDGEAIVLHVPGSERSYDLTGLKPGTEYSVLIHGVKGGLLSSPLQAIFTT
[2] SEQ ID NO 232 (designed binder, not shown: small tags and cut ends) MLPAPKNLVVSRVTEDSARLSWTAPDAAFDSFFIGYLEPQPPGEAIYLDVPGSERSYDLTGLKPGTEYNVTIQGVKGGFPSTFTT
[3] SEQ ID NO 226 (designed binder, not shown: small tags and cut ends) MLPAPKNLVVSRVTEDSARLSWTAPDAAFDSFYIAYAEPRPDGEAIGLHVPGSERSYDLTGLKPGTEYSVLIHGVKGGLLSSPLTASFTT
Ask: Using the list above, order everything by rising RLU. Returns: the labels arranged in the requested order.
Result: 3, 1, 2
